- Test system: SEM cells
- method-notes: cell viability relative to DMSO control; higher = less cytotoxic
- experimental-parameters: RPMI 5 mM glucose + 10% FBS; 48 h; 46.1 µM
Lab note: compare cell viability with 90%, writing met if less and not met if equal or more.

molecule	test-system	label-value
CC1(C)C(=O)N(CCN2CCC(C(=O)c3ccc(F)cc3)CC2)c2ccccc21	SEM cells	not met
CCCCCCCc1ccc(CCc2cccc(O)c2C(=O)O)cc1	SEM cells	not met
CC1=CC=CC=C1CN2C(=O)C/3=C(/CCN(CC4=CC=CC=C4)C3)N\5CC\N=C25	SEM cells	met
Oc1ccc(/C=C/c2cc(O)cc(O)c2)cc1	SEM cells	met
CN1CCC(CC1)COC2=CN=C(N=C2)C3=CC(=CC=C3)CN4/N=C(\C=C/C4=O)C5=CC(=CC=C5)C#N	SEM cells	met
CC(=O)N1CCN(c2ccc(OCc3nn(C)c(C)c3-c3cccc4c(CCCOc5cccc6ccccc56)c(C(=O)O)n(Cc5cccnc5)c34)cc2)CC1	SEM cells	met
C[C@@H](O)[C@@H]1[C@H]2[C@@H](C)\C(=C(/N2C1=O)C(=O)OCOC(=O)C(C)(C)C)SC3CN(C3)/C4=N/CCS4	SEM cells	met
CC1=C(C=CC=C1)N2\C(=N/C3=C(C(=CC=C3)C)C2=O)C[N]4N=CC5=C4N=CN=C5N	SEM cells	not met
C1CCC(C(CC2CCCCN2)C2CCCCC2)CC1 (centres undefined)	SEM cells	met
